# pEC50 per record follows
Target: T1, human CD20 on cells (human, UniProt P11836 1-297)
T1 construct: whole, on cells; Tumour antigen on the target cells; also called CD20 positive Ramos cells; Ramos cells
T1 sequence (looked up): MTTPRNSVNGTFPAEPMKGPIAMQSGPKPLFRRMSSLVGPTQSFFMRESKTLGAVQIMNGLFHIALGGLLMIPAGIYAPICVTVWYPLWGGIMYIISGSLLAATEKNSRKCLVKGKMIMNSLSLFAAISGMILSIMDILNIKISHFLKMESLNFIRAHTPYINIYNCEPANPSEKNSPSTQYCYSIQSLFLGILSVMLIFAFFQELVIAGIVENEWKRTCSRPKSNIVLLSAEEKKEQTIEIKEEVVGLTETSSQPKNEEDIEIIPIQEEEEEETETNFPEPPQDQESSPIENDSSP
Assay: flow cytometry, Ramos cells
pEC50: −log10 of the molar value.
MEASUREMENT LABEL: pEC50

>>> reported("T017000051 (bispecific antibody, CD20 x TCR bispecific Nanobody construct (cluster C); entry includes the FLAG3-HIS6 tag; also called 20CD019C07-35GS-T0170061G01-FLAG3-HIS6) EVQLVESGGGLVQPGGSLRLSCTFSGGTFSSYTMGWFRQAPGKEREFVAEVRWGGVTTYSNSLKDRFSISEDSVKNAVYLQMNSLKPEDTAVYYCAAVRQMYMTVVPDYWGQGTLVTVSSGGGGSGGGGSGGGGSGGGGSGGGGSGGGGSGGGGSEVQLVESGGGLVQPGGSLRLSCAASGEIGRINFYRWYRQAPGNQREVVATITIADKTDYADSAKGRFTISRDESRNMVYLQMSSLKPEDTAVYFCHAGSRLYPYDYWGQGTLVTVSSGAADYKDHDGDYKDHDIDYKDDDDKGAAHHHHHH")
8.57
>>> reported("T017000031 (bispecific antibody, TCR x CD20 bispecific Nanobody construct (cluster B); entry includes the FLAG3-HIS6 tag; also called T0170055C07-35GS-20CD019C07-FLAG3-HIS6) EVQLVESGGGLVQPGGSLRLSCITSGETFKINIWGWYRQAPGKQRELVASLTIGGATNYADSVKGRFTISEDSAKNTVYLQMNSLKPEDTAVYFCNAKSRLYPYDYWGQGTLVTVSSGGGGSGGGGSGGGGSGGGGSGGGGSGGGGSGGGGSEVQLVESGGGLVQPGGSLRLSCTFSGGTFSSYTMGWFRQAPGKEREFVAEVRWGGVTTYSNSLKDRFSISEDSVKNAVYLQMNSLKPEDTAVYYCAAVRQMYMTVVPDYWGQGTLVTVSSGAADYKDHDGDYKDHDIDYKDDDDKGAAHHHHHH")
7.64
>>> reported("T017000042 (bispecific antibody, TCR x CD20 bispecific Nanobody construct (cluster A); entry includes the FLAG3-HIS6 tag; also called T0170055A02-35GS-20CD019C07-FLAG3-HIS6) EVQLVESGGGLVQPGGSLRLSCAASGDVHKINILGWYRQAPAKEREMVAHITIGDATDYADSAKGRFTISRDEAKNMVYLQMNSLKPEDTAVYFCRAYSRIYPYNYWGQGTLVTVSSGGGGSGGGGSGGGGSGGGGSGGGGSGGGGSGGGGSEVQLVESGGGLVQPGGSLRLSCTFSGGTFSSYTMGWFRQAPGKEREFVAEVRWGGVTTYSNSLKDRFSISEDSVKNAVYLQMNSLKPEDTAVYYCAAVRQMYMTVVPDYWGQGTLVTVSSGAADYKDHDGDYKDHDIDYKDDDDKGAAHHHHHH")
7.70
